- experiment.summary: Volatility of perfuming compounds (Tables 4 to 10), with top/middle/bottom note type
- Format: physicochemical
- details: Table 8, perfuming compounds having a sweet note
For each entry below, report its Volatility value.
Expressed in μg/l air, but write only the number.

Data request: Consider the molecule CC(C)(C)C(=O)OCCc1ccccc1 [2-PHENYLETHYL PIVALATE] and give its measured Volatility.
Data returned: 71.44

Data request: Consider the molecule CC(=O)CCC1=C(C)CCCC1(C)C and give its measured Volatility.
Data returned: 63.61

Data request: Consider the molecule CCCCCC1CCCC(=O)O1 (racemic) [(+−)-6-pentyltetrahydro-2H-pyran-2-one] and give its measured Volatility.
Data returned: 9.61

Data request: Consider the molecule CCCC=C1OC(=O)c2ccccc21 [3-BUTYLIDENE-1-BENZO[C]FURANONE] and give its measured Volatility.
Data returned: 14.37

Data request: Consider the molecule CC(=O)OCCC1CCCCC1 [2-CYCLOHEXYL ETHYL ACETATE] and give its measured Volatility.
Data returned: 489.45

---

- experiment.summary: Volatility of perfuming compounds (Tables 4 to 10), with top/middle/bottom note type
- Type: physicochemical
- details: Table 6, perfuming compounds having a fruity note; note type by volatility

[
  {
    "molecule": "CCCCCCC1CCCC(=O)O1 (centres unmarked) [6-hexyltetrahydro-2H-pyran-2-one]",
    "Type": "Bottom"
  },
  {
    "molecule": "CC/C=C\\CCOC(=O)c1ccccc1 [(3Z)-3-hexen-1-yl benzoate]",
    "Type": "Bottom"
  },
  {
    "molecule": "COc1ccc(CCC(C)=O)cc1",
    "Type": "Bottom"
  }
]

---

- experiment.summary: Log P (n-octanol/water) of perfuming compounds (Tables 4 to 10)
- details: n-octanol/water; perfuming compounds having a green note
Where a name gives a salt, the structure may show the parent alone.
// class assignment uses Log P (n-octanol/water) with these ranges: one = under 2, two = from 2 up to 3, three = 3 and over

Data request: Could you tell me which band COCCc1ccccc1 belongs to?
Data returned: two

Data request: Could you tell me which band CCCC(C)COC(=O)C(C)CCC (stereo not shown) [2-METHYLPENTYL 2-METHYLPENTANOATE] belongs to?
Data returned: three

Data request: Could you tell me which band CC/C=C\CCOC(=O)C(C)CC (racemic) [(+−)-(Z)-3-HEXENYL 2-METHYLBUTANOATE] belongs to?
Data returned: three

Data request: Could you tell me which band COC(Cc1ccccc1)OC belongs to?
Data returned: two

Data request: Could you tell me which band CC(=O)C(C)O (racemic) [(+−)-3-HYDROXY-2-BUTANONE] belongs to?
Data returned: one

Data request: Could you tell me which band COc1ccc(C=O)cc1 belongs to?
Data returned: one

Data request: Could you tell me which band O=COCc1ccccc1 [BENZYL FORMATE] belongs to?
Data returned: one

Data request: Could you tell me which band C=C(C)[C@@H]1CC=C(CO)CC1 belongs to?
Data returned: two

Data request: Could you tell me which band CC(=O)CCc1ccccc1 belongs to?
Data returned: one

Data request: Could you tell me which band CCCOC(C)OCCc1ccccc1 (stereo not shown) belongs to?
Data returned: three

Data request: Could you tell me which band CCCCCCCCCCO belongs to?
Data returned: three

Data request: Could you tell me which band CC(CC=O)c1ccccc1 (racemic) [(+−)-3-PHENYLBUTANAL] belongs to?
Data returned: two

Data request: Could you tell me which band COC(OC)C(C)c1ccccc1 (stereo not shown) belongs to?
Data returned: two

Data request: Could you tell me which band c1ccc(CCCc2ccccn2)cc1 belongs to?
Data returned: two
